All figures here come from the NIST ThermoML archive (doi:10.1021/je200434a).

Quick reference for mass density among some compounds
- CONDITIONS: 309.15 K; 101.33 kPa; Liquid; Vibrating tube method
PARAMETER MEASURED: mass density (kg/m3)

>>> print(df.to_string())
                                   compound  parameter_measured  obs_value
0  CCn1cc[n+](C)c1.COS(=O)(=O)[O-] [1-ethyl-3-methylimidazolium methylsulfate]        mass density    1278.48
1  CCCCCCOS(=O)(=O)[O-].CC[n+]1ccn(C)c1 [3-ethyl-1-methyl-1H-imidazolium hexyl sulfate]        mass density    1123.03
2  CCCCOS(=O)(=O)[O-].CC[n+]1ccn(C)c1 [3-ethyl-1-methylimidazolium butyl sulfate]        mass density    1168.75
3  CCn1cc[n+](C)c1.O=S(=O)([O-])O [1-ethyl-3-methylimidazolium hydrogen sulfate]        mass density    1358.98
4  CCCCCCCCOS(=O)(=O)[O-].CCn1cc[n+](C)c1 [1-ethyl-3-methylimidazolium octyl sulfate]        mass density    1088.33
